Data provenance is PubChem BioAssay AID2060898.

System: 616215-338-R-J1-PDC complex spheroid viability
Assay details: Anticancer human tumor 616215-338-R-J1-PDC patient-derived colon adenocarcinoma cell line growth inhibition [RAS]
Assay setup: second compound 10 µM; first compound 10 µM; stronger effect = lower value
Recorded metric: viability, T/C (%)
One number for each entry, in %.

| Compound | Meas value |
| --- | --- |
| CC(C)NCC(C(=O)N1CCN(c2ncnc3c2C(C)CC3O)CC1)c1ccc(Cl)cc1 (configuration not stated) + C#Cc1c(F)ccc2cc(O)cc(-c3ncc4c(N5CC6CCC(C5)N6)nc(OCC56CCCN5CC(F)C6)nc4c3F)c12 | 18.5 |

From here, focus on the item given below.
Q: Name the recorded viability, T/C for CC(=O)OC12COC1CC(O)C1(C)C(=O)C(O)C3=C(C)C(OC(=O)C(O)C(NC(=O)OC(C)(C)C)c4ccccc4)CC(O)(C(OC(=O)c4ccccc4)C21)C3(C)C (configuration not stated) + C#Cc1c(F)ccc2cc(O)cc(-c3ncc4c(N5CC6CCC(C5)N6)nc(OCC56CCCN5CC(F)C6)nc4c3F)c12 .
Result: 12.3

* * *

System: 616215-338-R-J1-PDC complex spheroid viability
Assay details: Anticancer human tumor 616215-338-R-J1-PDC cell line growth inhibition [RAS];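 further: spheroids exposed to agents for seven days before viability readout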;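 on viability, T/C: 100% = DMSO vehicle control viability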
Assay setup: second compound 0.003 µM; first compound 0.1 µM; stronger effect = lower value
Recorded metric: viability, T/C (%)
Give bare numbers, in %.

| Compound | Endpoint unit | Meas value |
| --- | --- | --- |
| CC(C)n1nc(-c2ccc3oc(N)nc3c2)c2c(N)ncnc21 + CCn1c(-c2cccnc2C(C)OC)c2c3cc(ccc31)N1CCOC(CC(NC(=O)C(C(C)C)N(C)C(=O)C3(F)CCN(C(=O)C#CC(C)(C)N(C)C)CC3)C(=O)N3CCCC(N3)C(=O)OCC(C)(C)C2)C1 | % | 74.1 |

We next turn to a different compound, shown below.
Q: Endpoint output: viability, T/C of CCC(CC)c1cc(NC2CCC(N)C2)n2nccc2n1 (configuration not stated) + CCn1c(-c2cccnc2C(C)OC)c2c3cc(ccc31)N1CCOC(CC(NC(=O)C(C(C)C)N(C)C(=O)C3(F)CCN(C(=O)C#CC(C)(C)N(C)C)CC3)C(=O)N3CCCC(N3)C(=O)OCC(C)(C)C2)C1 . Value?
Result: 94.6

* * *

For each of the compounds below, state its pIC50.
System: 616215-338-R-J1-PDC complex spheroid viability
Assay details: Anticancer human tumor 616215-338-R-J1-PDC cell line growth inhibition [RAS];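 further: spheroids exposed to agents for seven days before viability readout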
Assay setup: curve of first compound; second compound 3.16 µM
Give bare numbers, as −log10 of the molar value.

// solved cases for pIC50 follow
| Compound | pIC50 |
| --- | --- |
| CCc1c2c(nc3ccc(O)cc13)-c1cc3c(c(=O)n1C2)COC(=O)[C@]3(O)CC + C#Cc1c(F)ccc2cc(O)cc(-c3ncc4c(N5CC6CCC(C5)N6)nc(OCC56CCCN5CC(F)C6)nc4c3F)c12 | 8.33 |
| C=CC(=O)Nc1cc(Nc2nccc(-c3cn(C)c4ccccc34)n2)c(OC)cc1N(C)CCN(C)C + C#Cc1c(F)ccc2cc(O)cc(-c3ncc4c(N5CC6CCC(C5)N6)nc(OCC56CCCN5CC(F)C6)nc4c3F)c12 | 6.82 |
| CC1(C)CCC(Nc2ncc(C(F)(F)F)c(-c3c[nH]c4c(P(C)(C)=O)c(C#N)ccc34)n2)CN1 (stereo unspecified) + C#Cc1c(F)ccc2cc(O)cc(-c3ncc4c(N5CC6CCC(C5)N6)nc(OCC56CCCN5CC(F)C6)nc4c3F)c12 | 8.08 |

Q: GET /values?readout=pIC50&system=616215-338-R-J1-PDC complex spheroid viability&item= Nc1ccn(C2OC(CO)C(O)C2(F)F)c(=O)n1 (stereo unspecified) + C#Cc1c(F)ccc2cc(O)cc(-c3ncc4c(N5CC6CCC(C5)N6)nc(OCC56CCCN5CC(F)C6)nc4c3F)c12
Result: 8.41

* * *

System: 616215-338-R-J1-PDC complex spheroid viability
Assay details: Anticancer human tumor 616215-338-R-J1-PDC cell line growth inhibition [RAS]; active = viability on the fitted dose curve at most 10% of control; inactive = the rest;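 further: spheroids exposed to agents for seven days before viability readout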
Assay setup: second compound 0.000949 µM; first compound 10 µM
Classes to choose from: active, inactive

| Compound | Group |
| --- | --- |
| C[C@@H](NC(=O)c1ncnc(N)c1Cl)c1ncc(C(=O)Nc2cc(C(F)(F)F)c(Cl)cn2)s1 + CCn1c(-c2cccnc2C(C)OC)c2c3cc(ccc31)N1CCOC(CC(NC(=O)C(C(C)C)N(C)C(=O)C3(F)CCN(C(=O)C#CC(C)(C)N(C)C)CC3)C(=O)N3CCCC(N3)C(=O)OCC(C)(C)C2)C1 | inactive |
| CC1(O)CCCC1n1c(=O)c(C(F)F)cc2cnc(NC3CCN(S(C)(=O)=O)CC3)nc21 (centres undefined) + CCn1c(-c2cc(N3CCN(C)CC3)cnc2C(C)OC)c2c3cc(ccc31)-c1csc(n1)CC(NC(=O)C1CC1C)C(=O)N1CCCC(N1)C(=O)OCC(C)(C)C2 | active |
| CC1(O)CCCC1n1c(=O)c(C(F)F)cc2cnc(NC3CCN(S(C)(=O)=O)CC3)nc21 (centres undefined) + CCn1c(-c2cccnc2C(C)OC)c2c3cc(ccc31)N1CCOC(CC(NC(=O)C(C(C)C)N(C)C(=O)C3(F)CCN(C(=O)C#CC(C)(C)N(C)C)CC3)C(=O)N3CCCC(N3)C(=O)OCC(C)(C)C2)C1 | inactive |

Q: In this assay, the call recorded for NC1c2ccccc2OC12CCN(c1cnc3c(N4CCCc5ncccc54)n[nH]c3n1)CC2 (centres undefined) + CCn1c(-c2cc(N3CCN(C)CC3)cnc2C(C)OC)c2c3cc(ccc31)-c1csc(n1)CC(NC(=O)C1CC1C)C(=O)N1CCCC(N1)C(=O)OCC(C)(C)C2 was what?
Result: inactive

* * *

System: 616215-338-R-J1-PDC complex spheroid viability
Assay details: Anticancer human tumor 616215-338-R-J1-PDC cell line growth inhibition [RAS];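 further: spheroids exposed to agents for seven days before viability readout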
Assay setup: curve of first compound; second compound 1 µM
Record form. Attribute: pIC50. Fill in for each entry.
Numbers only, as −log10 of the molar value.

| Compound | pIC50 |
| --- | --- |
| Cc1nc(N2CCC3(CC2)COC(C)C3N)c(CO)nc1Sc1ccnc(N)c1Cl (stereo not drawn) + C#Cc1c(F)ccc2cc(O)cc(-c3ncc4c(N5CC6CCC(C5)N6)nc(OCC56CCCN5CC(F)C6)nc4c3F)c12 | 6.27 |

Now, please, on to the next compound.
Q: I am curious: what pIC50 value has been reported for CC1(O)CCCC1n1c(=O)c(C(F)F)cc2cnc(NC3CCN(S(C)(=O)=O)CC3)nc21 (stereo not drawn) + C=CC(=O)N1CCN(c2nc(OCC3CCCN3C)nc3c(F)c(-c4nc(N)cc(C)c4C(F)(F)F)c(Cl)cc23)C(C)C1 ?
Result: 5.93

* * *

Test system: 616215-338-R-J1-PDC complex spheroid viability
Assay details: Anticancer human tumor 616215-338-R-J1-PDC cell line growth inhibition [RAS];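 further: spheroids exposed to agents for seven days before viability readout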;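 on viability, T/C: 100% = DMSO vehicle control viability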
Assay setup: second compound 0.03 µM; first compound 0.1 µM; stronger effect = lower value
Recorded metric: viability, T/C (%)
Answers are plain numbers, in %.

| Compound | viability, T/C, % |
| --- | --- |
| CC(Nc1ccc2c(c1)OCCn1cc(N3C(=O)OCC3C(F)F)nc1-2)C(N)=O (stereo not drawn) + CCn1c(-c2cc(N3CCN(C)CC3)cnc2C(C)OC)c2c3cc(ccc31)-c1csc(n1)CC(NC(=O)C1CC1C)C(=O)N1CCCC(N1)C(=O)OCC(C)(C)C2 | 41.2 |
| O=C(c1ccc(F)c(F)c1Nc1ccc(I)cc1F)N1CC(O)([C@@H]2CCCCN2)C1 + CCn1c(-c2cc(N3CCN(C)CC3)cnc2C(C)OC)c2c3cc(ccc31)-c1csc(n1)CC(NC(=O)C1CC1C)C(=O)N1CCCC(N1)C(=O)OCC(C)(C)C2 | 3.47 |
| Cc1nc(N2CCC3(CC2)COC(C)C3N)c(CO)nc1Sc1ccnc(N)c1Cl (stereo not drawn) + CCn1c(-c2cc(N3CCN(C)CC3)cnc2C(C)OC)c2c3cc(ccc31)-c1csc(n1)CC(NC(=O)C1CC1C)C(=O)N1CCCC(N1)C(=O)OCC(C)(C)C2 | 47.5 |

Each compound below has a recorded value; state its viability, T/C.
1. O=C(c1ccc(F)c(F)c1Nc1ccc(I)cc1F)N1CC(O)([C@@H]2CCCCN2)C1 + CCn1c(-c2cccnc2C(C)OC)c2c3cc(ccc31)N1CCOC(CC(NC(=O)C(C(C)C)N(C)C(=O)C3(F)CCN(C(=O)C#CC(C)(C)N(C)C)CC3)C(=O)N3CCCC(N3)C(=O)OCC(C)(C)C2)C1
2. NC1c2ccccc2OC12CCN(c1cnc3c(N4CCCc5ncccc54)n[nH]c3n1)CC2 (stereo not drawn) + CCn1c(-c2cccnc2C(C)OC)c2c3cc(ccc31)N1CCOC(CC(NC(=O)C(C(C)C)N(C)C(=O)C3(F)CCN(C(=O)C#CC(C)(C)N(C)C)CC3)C(=O)N3CCCC(N3)C(=O)OCC(C)(C)C2)C1
3. Cc1nc(N2CCC3(CC2)COC(C)C3N)c(CO)nc1Sc1ccnc(N)c1Cl (stereo not drawn) + CCn1c(-c2cccnc2C(C)OC)c2c3cc(ccc31)N1CCOC(CC(NC(=O)C(C(C)C)N(C)C(=O)C3(F)CCN(C(=O)C#CC(C)(C)N(C)C)CC3)C(=O)N3CCCC(N3)C(=O)OCC(C)(C)C2)C1
4. CC(C)NCC(C(=O)N1CCN(c2ncnc3c2C(C)CC3O)CC1)c1ccc(Cl)cc1 (stereo not drawn) + CCn1c(-c2cc(N3CCN(C)CC3)cnc2C(C)OC)c2c3cc(ccc31)-c1csc(n1)CC(NC(=O)C1CC1C)C(=O)N1CCCC(N1)C(=O)OCC(C)(C)C2
5. CC1(O)CCCC1n1c(=O)c(C(F)F)cc2cnc(NC3CCN(S(C)(=O)=O)CC3)nc21 (stereo not drawn) + CCn1c(-c2cccnc2C(C)OC)c2c3cc(ccc31)N1CCOC(CC(NC(=O)C(C(C)C)N(C)C(=O)C3(F)CCN(C(=O)C#CC(C)(C)N(C)C)CC3)C(=O)N3CCCC(N3)C(=O)OCC(C)(C)C2)C1

Result:
1: 34.7; 2: 85.1; 3: 114; 4: 40; 5: 112
